- STUDY_TARGET: p38α MAPK (Homo sapiens, UniProt Q16539)
- Sequence (Q16539 whole entry): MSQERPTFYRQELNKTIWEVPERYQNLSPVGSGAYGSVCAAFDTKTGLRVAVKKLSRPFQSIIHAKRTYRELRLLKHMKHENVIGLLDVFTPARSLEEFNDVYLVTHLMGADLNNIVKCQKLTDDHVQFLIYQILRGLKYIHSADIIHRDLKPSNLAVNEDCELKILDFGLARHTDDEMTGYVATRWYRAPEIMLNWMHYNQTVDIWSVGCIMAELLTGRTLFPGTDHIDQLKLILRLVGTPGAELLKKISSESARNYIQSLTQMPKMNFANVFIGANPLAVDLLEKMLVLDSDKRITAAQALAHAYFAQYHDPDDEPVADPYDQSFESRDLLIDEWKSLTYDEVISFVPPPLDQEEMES
- ASSAY_INFO: p38α MAPK enzyme-linked immunosorbent assay
- Type: biochemical
- EXPERIMENTAL_SETUP: read-out: Percent inhibition of p38α MAPK at indicated concentration
MEASURED_PROPERTY: inhibition at 10 µM (%)

Measured inhibition at 10 µM, CSc1nc(C)c(-c2ccnc(Nc3ccc(NC(=O)C4CCCCC4)cc3)c2)[nH]1 [Compound 48p] : 27

Measured inhibition at 10 µM, CCn1c(SC)nc(C)c1-c1ccnc(Nc2ccc(N3CCOCC3)cc2)c1 [Compound 58] : 21

Measured inhibition at 10 µM, CCc1nc(SC)[nH]c1-c1ccnc(Nc2ccc(N3CCOCC3)cc2)c1 [Compound 45] : 38

I = CSc1nc(C)c(-c2ccnc(NC(C)C(C)C)c2)[nH]1 (centres unmarked) [Compound 48a]
II = CSc1nc(C)c(-c2ccnc(Nc3ccc(NC(=O)C(C)(C)C)cc3)c2)[nH]1 [Compound 48q]
Which entry has a larger number for inhibition at 10 µM, I or II ? Indicate your choice by writing its label.
I

----------
- STUDY_TARGET: p38α MAPK (Homo sapiens, UniProt Q16539)
- ASSAY_INFO: p38α MAPK enzyme-linked immunosorbent assay
- Type: biochemical
- EXPERIMENTAL_SETUP: read-out: Percent inhibition of p38α MAPK at indicated concentration
MEASURED_PROPERTY: inhibition at 10 µM (%)

Measured inhibition at 10 µM, Cc1nc[nH]c1-c1ccnc(Nc2ccc(N3CCOCC3)cc2)c1 : 41

Measured inhibition at 10 µM, CC(C)(C)c1nc[nH]c1-c1ccnc(Nc2ccc(N3CCOCC3)cc2)c1 [Compound 18k] : 41

Measured inhibition at 10 µM, CSc1nc(C)c(-c2ccnc(NC3CCC3)c2)[nH]1 [Compound 48c] : 36

Measured inhibition at 10 µM, CC(C)c1nc[nH]c1-c1ccnc(Nc2ccc(N3CCOCC3)cc2)c1 [Compound 18l] : 50

Measured inhibition at 10 µM, Cc1[nH]c(N)nc1-c1ccnc(Nc2ccc(N3CCOCC3)cc2)c1 : 43

----------
- STUDY_TARGET: JNK2 (Homo sapiens, UniProt P45984)
- Sequence (P45984 whole entry): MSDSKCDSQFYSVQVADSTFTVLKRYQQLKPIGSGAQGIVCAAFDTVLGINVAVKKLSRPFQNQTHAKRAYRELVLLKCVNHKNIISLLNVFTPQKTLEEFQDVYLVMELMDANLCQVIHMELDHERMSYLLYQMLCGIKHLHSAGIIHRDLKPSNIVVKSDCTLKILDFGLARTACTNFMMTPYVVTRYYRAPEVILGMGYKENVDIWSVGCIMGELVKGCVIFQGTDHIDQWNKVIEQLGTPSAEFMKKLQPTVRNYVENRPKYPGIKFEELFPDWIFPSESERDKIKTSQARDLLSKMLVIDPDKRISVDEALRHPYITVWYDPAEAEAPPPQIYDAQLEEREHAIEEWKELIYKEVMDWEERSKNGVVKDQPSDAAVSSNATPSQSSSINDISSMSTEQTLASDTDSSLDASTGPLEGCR
MEASURED_PROPERTY: pIC50
Reminder that pIC50 means the negative base-10 logarithm of the concentration expressed in mol/L.

Measured pIC50, CSc1nc(C)c(-c2ccnc(Nc3ccc(N4CCOCC4)cc3)c2)[nH]1 : 6.33

----------
Each item that follows carries a reported IC50.
- STUDY_TARGET: p38α MAPK (Homo sapiens, UniProt Q16539)
- ASSAY_INFO: p38α MAPK enzyme-linked immunosorbent assay
- Format: biochemical

Answered cases to consult:
Measured IC50, Cc1nc[nH]c1-c1ccnc(Nc2ccc(N3CCOCC3)cc2)c1 : > 10000 nM

Measured IC50, CSc1nc(C)c(-c2ccnc(Nc3ccc(NC(=O)C4CCCCC4)cc3)c2)[nH]1 [Compound 48p] : > 10000 nM

Measured IC50, c1cc(-c2[nH]cnc2C2CCC2)cc(Nc2ccc(N3CCOCC3)cc2)n1 [Compound 18i] : 2260 nM

Measured IC50, CSc1nc(C)c(-c2ccnc(NC3CCCC3)c2)[nH]1 [Compound 48d] : > 10000 nM

Measured IC50, CCn1c(SC)nc(C)c1-c1ccnc(Nc2ccc(N3CCOCC3)cc2)c1 : > 10000 nM

Continuing:
Measured IC50, CSc1nc(C)c(-c2ccnc(Nc3ccc(NC(C)=O)cc3)c2)[nH]1 [Compound 48n] : > 10000 nM

Measured IC50, Brc1ccccc1-c1nc[nH]c1-c1ccnc(Nc2ccc(N3CCOCC3)cc2)c1 [Compound 18c] : 61 nM

Measured IC50, c1cc(-c2[nH]cnc2C2CCCCC2)cc(Nc2ccc(N3CCOCC3)cc2)n1 [Compound 18g] : 726 nM

Measured IC50, CSc1nc(C)c(-c2ccnc(N[C@H]3CC[C@H](O)CC3)c2)[nH]1 [Compound 48g] : > 10000 nM

Measured IC50, CSc1nc(C)c(-c2ccnc(N[C@H]3CC[C@H](NC(=O)C(C)(C)C)CC3)c2)[nH]1 [Compound 48l] : > 10000 nM
